// provenance: PubChem BioAssay

# reported z-score; entries follow
# Measurement Description: inhibitors of hydroxyurea-induced Chk1 phosphorylation, primary screen, imaging, HeLa, phospho-Chk1 antibody, percent positive cells (AID 1186)
# Run Parameters: hydroxyurea-induced phospho-Chk1 immunofluorescence imaging, higher = more signal
Quantity: z-score

# Compound, Quantity, Meas Value
data = [
    ("COc1ccc(CCNC(=O)[C@@H]2c3ccccc3C(=O)N(c3ccc(C)cn3)[C@H]2c2ccc(CO)cc2)cc1", "z-score", 0.274),
    ("[N-]=[N+]=NCc1ccccc1[C@@H]1OC(c2ccc(OCCCO)cc2)=N[C@]1(Cc1ccccc1)C(=O)N1CCOCC1", "z-score", -0.449),
    ("O=C1NC(=O)C2C1C=CC(C(O)Cc1ccccc1)N2Nc1ccccn1 (centres undefined)", "z-score", -0.349),
    ("CC(C)=C1C(=O)C(c2ccccc2)=C2CN3C(=O)N(CCc4ccccc4)C(=O)[C@]3(Cc3ccc(F)cc3)[C@H]21", "z-score", 0.0852),
]

----------
# Measurement Description: fission yeast growth modulation, primary screen, strain 972, OD600, 24 h, no modulator (AID 1090);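 note: basal condition with compound alone and no growth modifier present; test concentration not given here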
# Run Parameters: S. pombe 972 growth, higher = more signal, called active from +8 up or from −8 down
Quantity: z-score

# Compound, Meas Value
measured = [
    ("C=CCOC(=O)[C@H]1[C@@H]2C(=O)O[C@@H](c3ccccc3)[C@@H](c3ccccc3)N2[C@@H](c2ccc(OCCOC(=O)[C@H]3C[C@H]4C(=O)N5CCC[C@H]5C(=O)N4[C@H]3c3cccc(OCCO)c3)cc2)[C@]12C(=O)Nc1ccc(I)cc12", -0.77),
    ("CC(C)(C)N1C(=O)[C@H]2[C@H]3[C@H](O)[C@H](O)CC(=NOCc4ccccc4)[C@@H]3CC[C@H]2C1=O", -0.752),
    ("CC(C)[C@@H](OCc1ccccc1)[C@H](C)C=NO[C@H](C)c1cn([C@H](CO)Cc2ccccc2)nn1", -3.29),
    ("CCN1C(=O)[C@H]2[C@H]3[C@H](O)[C@H](O)CC(=NOC(C)CN4CCCCc5nc(C)c(C)cc54)[C@@H]3CC[C@H]2C1=O (stereo partly drawn)", 0.634),
    ("COc1ccc(-c2ccc3c(n2)CCCN3CC(O)CN2CCCc3nc(C)c(C)cc32)cc1 (stereo not drawn)", -0.411),
    ("COC(=O)C1(C)C=C2C(=C(c3ccccc3)C(=O)C2C)CN1 (stereo not drawn)", 0.14),
    ("COc1ccccc1CN1C(=O)c2ccccc2[C@@H](C(=O)NCC(F)(F)F)[C@@H]1c1ccc(CO)cc1", 0.74),
    ("COC(=O)[C@@]1(Cc2ccc(OC)cc2)[C@H]2c3cc(C(=O)N4CCCC4)n(Cc4cc(F)c(F)c(F)c4)c3C[C@H]2CN1C(=O)c1ccccc1", 1.39),
    ("CCOC(=O)[C@H](Cc1ccccc1)NC(=O)CCC1CC(OC(=O)NCc2ccc3c(c2)OCO3)CC2(CCCC(COC(=O)NCc3cccc(C(F)(F)F)c3)O2)O1 (stereo partly drawn)", 0.926),
    ("C#CCCCON=C1C[C@@H](O)[C@@H](O)[C@@H]2[C@@H]3C(=O)N(c4cccc(Oc5ccccc5)c4)C(=O)[C@@H]3CC[C@@H]12", 0.329),
    ("CCCNC(=O)OC[C@H]1O[C@H](CCON=C2[C@H]3CCn4c(=O)n(-c5ccccc5)c(=O)n4[C@H]3[C@H](O)[C@@H]3O[C@H]23)C=C[C@@H]1Oc1ccc(OC)cc1", 0.0063),
    ("CCCNC(=O)[C@@H]1c2ccccc2C(=O)N(c2ccc(C)cn2)[C@H]1c1ccc(CO)cc1", -0.144),
    ("CCCC=C(CCC)[C@@H](NC(=O)c1ccc(-c2ccccc2)cc1)c1ccc(C(=O)OC)cc1", 1.77),
    ("CC(C)CON=C1C[C@@H](O)[C@@H](O)[C@@H]2[C@@H]3C(=O)N(C[C@@H]4CCCO4)C(=O)[C@@H]3CC[C@H]12", 0.042),
    ("CC(CCN1CCCCc2nc(C)c(C)cc21)=NOC(C)CN1CCCc2nc(C)c(C)cc21 (stereo not drawn)", -1.06),
    ("O=C1O[C@@H](c2ccccc2)[C@@H](c2ccccc2)N2[C@@H](c3ccc(OCCO)cc3)[C@]3(C(=O)Nc4ccc(C#CCCO)cc43)[C@@H](C(=O)N3CCCCCCC3)[C@H]12", -0.507),
    ("C=COC[C@H]1CN2[C@@H](CC[C@@H](C)[C@@H]2c2ccc(Br)cc2)C(=O)O1", -4.68),
    ("O[C@@H](Cc1ccccc1)[C@H]1C2C=CCCC(c3ccccc3)=C2CN1Cc1cccc(Cl)c1 (stereo partly drawn)", -3.65),
    ("COCCOC(=O)N1C(=O)[C@@]2(c3cc(C#Cc4ccc(OC)cc4)ccc31)[C@H](C(=O)N1CCN(c3ncccn3)CC1)[C@H]1C(=O)O[C@H](c3ccccc3)[C@H](c3ccccc3)N1[C@@H]2c1ccc(OCCO)cc1", 1.46),
    ("CC(=O)OC[C@H]1O[C@@H](ON=C(C)CCN2CCc3nc(-c4ccccc4)c(-c4ccccc4)cc3C2)[C@H](OC(C)=O)[C@@H](OC(C)=O)[C@@H]1OC(C)=O", -1.03),
    ("CC[C@@H](c1ccccc1)n1c(=O)n2n(c1=O)[C@H]1[C@H](O)[C@@H]3O[C@@H]3C(=NOCC=C(C)CCC=C(C)C)[C@H]1CC2", 0.052),
    ("COc1ccc(-c2nc3c(c4c2C[C@H](C)OC4)CN(CCC(C)C)CC3)cc1", -0.692),
    ("O=C1C2=CC[C@H]3C(=O)N(Cc4ccc5c(c4)OCO5)C(=O)[C@H]3[C@H]2[C@H](O)[C@@H]2O[C@H]12", -0.682),
    ("COC(=O)[C@@H]1CCCN1C(=O)[C@@H](C)CO", -0.988),
    ("O=C(CS)NCCCCCNC(=O)[C@H]1C[C@H]2C(=O)N3CCC[C@H]3C(=O)N2[C@H]1c1cccc(OCCO)c1", -0.723),
    ("O=C1[C@H]2[C@H]3[C@H](O)[C@H](O)CC(=NO[C@@H]4O[C@H](CO)[C@@H](O)[C@H](O)[C@H]4O)[C@H]3CC[C@H]2C(=O)N1Cc1ccccc1", -0.468),
    ("COc1ccc(OC[C@H]2Cc3c(-c4ccccc4)nc4c(c3CO2)CN(CCOc2ccccc2)CC4)cc1", -2.44),
    ("C=CC[C@@H]1C=C[C@H](ON=C[C@@H](OC)[C@H](C)C=CCC(=O)OC)[C@@H](CO)O1", 0.173),
]

----------
# Measurement Description: cell viability in Huh7 cells, primary screen, cytotoxicity control for HCV replication inhibitor project, CellTiter-Glo luminescence, basal, 48 h (AID 1143);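 note: Huh7 hepatoma cells carrying a hepatitis C replication reporter with no stimulus; test concentration not given here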
# Run Parameters: Huh7 HCV replicon, higher = more signal, called active from +8 up or from −8 down
The threshold is inclusive: z-score of exactly -0.5 counts as TRUE; values below receive FALSE.

# Compound, Label Value
data = [
    ("O=C1O[C@@H](c2ccccc2)[C@@H](c2ccccc2)N2[C@@H](c3ccc(OCCO)cc3)[C@]3(C(=O)Nc4ccc(C#CCCO)cc43)[C@@H](C(=O)N3CCCCCCC3)[C@H]12", "FALSE"),
    ("COC(=O)[C@H](C)NC(=O)CCC1CC(OC(=O)NCc2cccc3ccccc23)CC2(CCCC(COC(=O)NCCc3ccc(Cl)cc3)O2)O1 (some centres not stated)", "TRUE"),
    ("COc1ccc(O[C@H]2C=C[C@@H](c3ccccc3)O[C@@H]2COC(=O)CCC(C)=NO[C@H](C)c2cn([C@@H]3COC[C@H]3O)nn2)cc1", "FALSE"),
    ("COC(=O)[C@H](C)NC(=O)CCC1CC(OC(=O)NCc2cccc3ccccc23)CC2(CCCC(COC(=O)NCC3CCCCC3)O2)O1 (some centres not stated)", "TRUE"),
    ("COc1ccc(OC[C@H]2Cc3c(-c4ccccc4)nc4c(c3CO2)CN(CCOc2ccccc2)CC4)cc1", "FALSE"),
    ("CCCCCN1CC=CC23O[C@@H]4C=CCOC(=O)[C@@H]4[C@H]2C(=O)N(C(CO)C(C)C)[C@@H]3C1=O (some centres not stated)", "FALSE"),
    ("CCCC=C(CCC)[C@@H](NC(=O)c1ccc(-c2ccccc2)cc1)c1ccc(C(=O)OC)cc1", "TRUE"),
]

----------
# Measurement Description: FRG1 promoter luciferase signal modulators, primary screen, FRG1 inhibition for FSHD, cell-based, C2C12 myotubes, firefly/Renilla luciferase, luminescence (AID 1084)
# Run Parameters: called active from +8 up or from −8 down
Calls of active or inactive are those of the source.
Labels: y (active), n (inactive)

# Compound, Label Value
rows = [
    ("CCc1cccc(NC(=O)O[C@H]2[C@H](OC(=O)Nc3ccc4c(c3)OCO4)[C@@H](OC(=O)Nc3ccc4c(c3)OCO4)[C@@H](OC)O[C@@H]2CO)c1", "y"),
    ("O=C1C2C=CC(C(O)c3ccc([N+](=O)[O-])cc3)N(Nc3ccc([N+](=O)[O-])cc3)C2C(=O)N1c1ccccc1 (stereo not given)", "n"),
    ("C=CCNC(=O)[C@H]1[C@@H]2C(=O)O[C@@H](c3ccccc3)[C@@H](c3ccccc3)N2[C@@H](c2ccc(O)cc2)[C@]12C(=O)N(C(=O)OCCOC)c1ccc(C#CC3=CCCCC3)cc12", "n"),
    ("COc1cccc([C@@H]2Oc3ccc(Br)cc3C(=O)[C@H]2O)c1", "n"),
    ("CCN1C(=O)[C@H]2[C@H]3[C@H](O)[C@H](O)CC(=NOC(C)CN4CCCCc5nc(C)c(C)cc54)[C@@H]3CC[C@H]2C1=O (stereo not given in full)", "n"),
    ("CCCC=C(CCC)[C@@H](NC(=O)c1ccc(-c2ccccc2)cc1)c1ccc(C(=O)OC)cc1", "n"),
    ("CC(CCC(=O)OC[C@H]1O[C@H](C#Cc2ccccc2)C=C[C@@H]1Oc1ccc(C)cc1)=NOC[C@@H](O)[C@H]1O[C@@H]2OC(C)(C)O[C@@H]2[C@H]1O", "n"),
    ("COc1ccc(-c2ccc3c(n2)CCCN3CC(O)CN2CCCc3nc(C)c(C)cc32)cc1 (stereo not given)", "n"),
    ("COc1ccc(O[C@@H]2[C@H](O)CO[C@H]2C=CC#Cc2ccccc2)cc1", "n"),
    ("NC(=O)NCC#Cc1ccc2c(c1)[C@]1(C(=O)N2)[C@H](c2ccc(O)cc2)N2[C@H](c3ccccc3)[C@H](c3ccccc3)OC(=O)[C@H]2[C@@H]1C(=O)N1CCCCCCC1", "n"),
    ("CCN1C(=O)[C@H]2[C@H]3[C@H](O)C=CC(=O)[C@@H]3CC[C@H]2C1=O", "n"),
    ("COc1ccc(O[C@H]2C=C[C@@H](c3ccccc3)O[C@@H]2COC(=O)CCC(C)=NOCC[C@@H]2C=C[C@H](OC(C)=O)[C@@H](COC(C)=O)O2)cc1", "n"),
    ("CO[C@@H]1COC(=O)[C@H](C)NC(=O)[C@@H](C)COC(=O)CCC[C@H]1C", "n"),
    ("CC(C)C[C@@H]1NC(=O)[C@H]2C[C@@H](C(=O)NCCCCCCN(C)C)[C@@H](c3cccc(OCCO)c3)N2C1=O", "n"),
    ("CO[C@H]1COC(=O)[C@H](C)NC(=O)[C@@H](C)COC(=O)CC=C[C@@H]1C", "n"),
]
